- TARGET DESC: Gonadotropin-releasing hormone receptor (Rattus norvegicus)
- Sequence (whole entry): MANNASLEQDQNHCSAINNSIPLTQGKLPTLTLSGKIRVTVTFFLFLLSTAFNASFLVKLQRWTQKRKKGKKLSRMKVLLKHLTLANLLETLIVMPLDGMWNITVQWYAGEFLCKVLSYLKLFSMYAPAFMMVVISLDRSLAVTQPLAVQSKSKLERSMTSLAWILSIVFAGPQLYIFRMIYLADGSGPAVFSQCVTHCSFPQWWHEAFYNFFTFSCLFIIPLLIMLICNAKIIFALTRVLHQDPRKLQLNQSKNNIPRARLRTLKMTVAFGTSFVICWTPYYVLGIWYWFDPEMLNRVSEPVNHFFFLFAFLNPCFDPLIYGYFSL
- MEASUREMENT DESCRIPTION: In vitro antagonistic activity against LH release in rat pituitary cells for control.
- Type: functional, cell-based
- RUN PARAMETERS: Pituitary gland cell
Square brackets hold non-standard residues; d marks the D form. Peptide text beside a SMILES is read from it. 2Nal = N[C@@H](Cc1ccc2ccccc2c1)C(=O)O
ENDPOINT NAME: Activity

The examples below pair each entry with its known result.
{"columns": ["COMPOUND", "TARGET DESC", "EXPERIMENTAL RESULT"],
 "data": [
  ["CC(=O)NC(Cc1ccc2ccccc2c1)C(=O)N[C@@H](Cc1ccc(Cl)cc1)C(=O)N[C@@H](Cc1cccnc1)C(=O)N[C@@H](CO)C(=O)N[C@@H](Cc1ccc(O)cc1)C(=O)NC(Cc1ccc2ccccc2c1)C(=O)N[C@@H](CC(C)C)C(=O)N[C@@H](CCCN=C(N)N)C(=O)N1CCC[C@H]1C(=O)N[C@H](C)C(N)=O (stereo in doubt)", "Gonadotropin-releasing hormone receptor (Rattus norvegicus)", 3.8],
  ["CC(=O)N[C@@H](Cc1ccc2ccccc2c1)C(=O)NC(CCCCNC(=O)c1ccccn1)C(=O)N[C@@H](CCCCNC(=O)c1ccccn1)C(=O)NC(CCCN=C(N)N)C(=O)NC(C)C(N)=O (stereo in doubt)", "Gonadotropin-releasing hormone receptor (Rattus norvegicus)", 2.3],
  ["CC(=O)NC(Cc1ccc2ccccc2c1)C(=O)N[C@@H](CCCCNC(=O)c1ccccn1)C(=O)N[C@@H](CCCN=C(N)N)C(=O)NC(C)C(N)=O (single isomer, unassigned)", "Gonadotropin-releasing hormone receptor (Rattus norvegicus)", 2.3]
]}

[A] CC(=O)N[C@@H](Cc1ccc2ccccc2c1)C(=O)N[C@@H](CO)C(=O)N[C@@H](Cc1ccc(O)cc1)C(=O)N[C@@H](Cc1cccnc1)C(=O)N[C@@H](CC(C)C)C(=O)N[C@@H](CCCN=C(N)N)C(=O)N1CCC[C@H]1C(=O)N[C@H](C)C(N)=O
[B] CC(=O)N[C@@H](Cc1ccc2ccccc2c1)C(=O)N[C@@H](Cc1ccc(O)cc1)C(=O)N[C@@H](Cc1ccc2ccccc2c1)C(=O)N[C@@H](CCCN=C(N)N)C(=O)N[C@@H](C)C(N)=O (Ac-[2Nal]Y[2Nal]RA-NH2)
Q: Lab note: check whether A or B has the lower measured Activity. State the label of the item chosen.
Result: B
(B: 2.3, A: 4.8)
